Origin of the recorded values: paper PMC7278695

- measured target: BRAF V600E kinase (Homo sapiens, UniProt P15056, V600E)
- Sequence (P15056 whole entry V600E): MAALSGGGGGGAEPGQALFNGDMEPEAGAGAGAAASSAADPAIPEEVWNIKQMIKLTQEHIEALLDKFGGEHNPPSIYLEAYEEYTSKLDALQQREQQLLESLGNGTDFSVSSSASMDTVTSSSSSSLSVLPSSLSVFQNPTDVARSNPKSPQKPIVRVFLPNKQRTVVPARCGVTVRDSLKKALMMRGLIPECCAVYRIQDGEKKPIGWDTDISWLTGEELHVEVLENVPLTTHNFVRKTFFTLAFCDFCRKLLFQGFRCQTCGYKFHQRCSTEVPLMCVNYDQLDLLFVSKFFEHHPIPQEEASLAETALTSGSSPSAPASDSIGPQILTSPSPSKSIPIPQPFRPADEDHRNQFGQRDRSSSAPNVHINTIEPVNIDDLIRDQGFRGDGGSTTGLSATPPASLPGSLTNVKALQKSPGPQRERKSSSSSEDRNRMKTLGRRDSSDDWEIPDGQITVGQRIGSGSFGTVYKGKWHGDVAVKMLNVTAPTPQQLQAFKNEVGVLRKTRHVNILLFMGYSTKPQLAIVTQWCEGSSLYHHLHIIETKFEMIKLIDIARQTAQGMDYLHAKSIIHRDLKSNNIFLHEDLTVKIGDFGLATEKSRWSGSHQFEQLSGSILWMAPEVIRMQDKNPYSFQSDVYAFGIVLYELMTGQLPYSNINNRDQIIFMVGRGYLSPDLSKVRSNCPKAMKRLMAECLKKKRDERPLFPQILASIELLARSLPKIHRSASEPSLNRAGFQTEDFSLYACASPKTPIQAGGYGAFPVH
- assay procedure: BRAF (V600E) Kinase Assay Kit, Kinase-Glo luminescence
- experimental setup: 45 min at 30 °C
observed property: IC50 (µM)
Please reply with the bare figure in µM and do not write the unit itself.

The following compounds have reported results that may help.
| compound | measured target | IC50 / µM |
| --- | --- | --- |
| COc1cc([C@@H]2Oc3cc([C@H]4Oc5cc(O)cc(O)c5C(=O)[C@@H]4O)ccc3O[C@H]2CO)ccc1O | BRAF V600E kinase (Homo sapiens, UniProt P15056, V600E) | 73.9 |
| COc1cc([C@@H]2Oc3cc(-c4oc5cc(O)cc(O)c5c(=O)c4O)ccc3O[C@H]2CO)ccc1O [DHSilB, 2,3-dehydrosilybin B] | BRAF V600E kinase (Homo sapiens, UniProt P15056, V600E) | 24.9 |
| COc1cc([C@H]2Oc3cc(-c4oc5cc(O)cc(O)c5c(=O)c4O)ccc3O[C@@H]2CO)ccc1O [DHSilA, 2,3-dehydrosilybin A] | BRAF V600E kinase (Homo sapiens, UniProt P15056, V600E) | 70.6 |

Proceed to the following item.
Exercise: Specify IC50 for "COc1cc([C@H]2Oc3cc([C@H]4Oc5cc(O)cc(O)c5C(=O)[C@@H]4O)ccc3O[C@@H]2CO)ccc1O" and stop.
Key: 104
